Answer each item with its documented PRNT IC50.
Substrate: F protein of hMPV A virus (human metapneumovirus subtype A)
Test: cell-based or functional assay

Give reported PRNT IC50 value for M4A11 (antibody, V domains shown) VH: QVQLVQSGSEVKRPGASVRVSCTASGYTFSNYGVSWMRQAPGHGLEWMGWISTHNQNVRYSQNFQGRVTVTTDTSTSTAYMDLRGLKPDDTAVYFCARMIPVGTTYTPYWTGWTPGGMDIWGQGTTVIVSS VL: QSVLTQPPSASGTPGQRVIMSCSGTTSNIGRNFVYWYQQLPKEAPTLLIYGNDQRPAGVPDRFSGSTSGTSASLAISGLRSGDEADYYCATWDDSVNGPVFGGGTKLTVL > 10000 ng/mL

Give reported PRNT IC50 value for M4C02 (antibody, V domains shown) VH: QLQLQESGPRLVKPSETLSLTCSVSGGSISSSSLYWGWIRQSPGKGLEWIGTIYYGGSSDYNPSLKSRLTMSVDTSKNHFSLRLSSVTAADTAVYYCARVGSPVTTTVWFDPWGQGTLVTVSS VL: DIQMTQSPSSLAASIGDRVTITCRASQTISTYLNWYQQKPGKAPKLLIYAASTLQSGVPSRFSGSGSGTDFTLTISSLQPEDFATYYCQQTYSSLALTFGGGTKVEIR 577 ng/mL

Give reported PRNT IC50 value for M3E01 (antibody, V domains shown) VH: EVQLVESGGGLIQPGGSLRLSCTASGFTVSSKYMSWVRQAPGKGLEWVSLIYDGGSTYYADSVKGRFLISRDNAKNTLYLQMHSLRAEDTAVYYCARDRGTYSGYDWYSGMDVWGQGTTVTVSS VL: DIQLTQSPSFLSASVGDRITITCRASQGISSYLAWYQQKPGKAPKLLIYAASTLQSGVPSRFSGSGSGTEFNVTISSLQPEDFATYYCQQLKSYPGTFGQGTKVEIE > 10000 ng/mL
